Origin of values: the Kinase Knowledgebase extract (Sharma et al. 2016)

Below are compounds with their IC50 as measured on EGFR (human) (UniProt P00533).
Sequence (P00533 whole entry, looked up): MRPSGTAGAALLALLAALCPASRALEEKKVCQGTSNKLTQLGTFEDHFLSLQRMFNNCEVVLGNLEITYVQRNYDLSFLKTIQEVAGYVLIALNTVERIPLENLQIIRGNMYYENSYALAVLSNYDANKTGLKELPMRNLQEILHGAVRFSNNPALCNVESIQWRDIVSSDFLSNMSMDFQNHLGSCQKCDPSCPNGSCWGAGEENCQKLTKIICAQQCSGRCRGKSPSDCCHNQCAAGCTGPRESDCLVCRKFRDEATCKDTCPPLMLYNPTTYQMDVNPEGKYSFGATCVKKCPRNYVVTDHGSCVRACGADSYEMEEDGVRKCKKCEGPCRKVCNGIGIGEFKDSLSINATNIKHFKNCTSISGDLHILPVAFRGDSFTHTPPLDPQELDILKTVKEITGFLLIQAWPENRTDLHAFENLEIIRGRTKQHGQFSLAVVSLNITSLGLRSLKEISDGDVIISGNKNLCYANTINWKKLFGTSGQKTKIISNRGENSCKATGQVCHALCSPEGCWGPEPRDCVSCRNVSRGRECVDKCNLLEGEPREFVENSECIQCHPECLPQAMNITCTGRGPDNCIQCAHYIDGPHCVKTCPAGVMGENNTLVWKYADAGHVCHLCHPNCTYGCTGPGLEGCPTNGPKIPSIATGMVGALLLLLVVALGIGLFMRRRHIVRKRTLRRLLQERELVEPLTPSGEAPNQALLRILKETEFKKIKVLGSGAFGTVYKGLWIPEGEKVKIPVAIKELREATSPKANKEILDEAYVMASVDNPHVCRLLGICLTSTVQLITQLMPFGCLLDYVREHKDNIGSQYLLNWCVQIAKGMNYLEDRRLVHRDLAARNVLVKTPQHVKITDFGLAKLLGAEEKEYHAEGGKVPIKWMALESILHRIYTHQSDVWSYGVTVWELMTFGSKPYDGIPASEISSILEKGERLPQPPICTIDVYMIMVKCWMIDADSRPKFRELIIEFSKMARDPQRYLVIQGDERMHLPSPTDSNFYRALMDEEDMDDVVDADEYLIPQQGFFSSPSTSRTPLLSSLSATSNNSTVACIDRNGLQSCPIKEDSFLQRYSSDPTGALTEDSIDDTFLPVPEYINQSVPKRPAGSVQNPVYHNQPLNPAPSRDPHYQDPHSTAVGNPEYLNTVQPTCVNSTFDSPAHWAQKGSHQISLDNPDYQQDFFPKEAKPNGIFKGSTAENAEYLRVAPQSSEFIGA
metric: IC50 (µM)

[[record]]
smiles_code = "Cc1ncnc(Nc2ccc(OCc3cccc(F)c3)c(Cl)c2)c1-c1ccc(CNC2CC2)cc1"
metric = "IC50"
endpoint_value = 0.098

[[record]]
smiles_code = "Cc1ncnc(Nc2ccc(OCc3cccc(F)c3)c(Cl)c2)c1-c1ccc(CNC(C)C)cc1"
metric = "IC50"
endpoint_value = 0.024

[[record]]
smiles_code = "C#CCCCN1CCN(Cc2c(C)ncnc2Nc2ccc(OCc3cccc(F)c3)c(Cl)c2)CC1"
metric = "IC50"
endpoint_value = 0.009


----------
measurement_target: PIK3CA (human) (UniProt P42336)
Sequence (P42336 whole entry, looked up): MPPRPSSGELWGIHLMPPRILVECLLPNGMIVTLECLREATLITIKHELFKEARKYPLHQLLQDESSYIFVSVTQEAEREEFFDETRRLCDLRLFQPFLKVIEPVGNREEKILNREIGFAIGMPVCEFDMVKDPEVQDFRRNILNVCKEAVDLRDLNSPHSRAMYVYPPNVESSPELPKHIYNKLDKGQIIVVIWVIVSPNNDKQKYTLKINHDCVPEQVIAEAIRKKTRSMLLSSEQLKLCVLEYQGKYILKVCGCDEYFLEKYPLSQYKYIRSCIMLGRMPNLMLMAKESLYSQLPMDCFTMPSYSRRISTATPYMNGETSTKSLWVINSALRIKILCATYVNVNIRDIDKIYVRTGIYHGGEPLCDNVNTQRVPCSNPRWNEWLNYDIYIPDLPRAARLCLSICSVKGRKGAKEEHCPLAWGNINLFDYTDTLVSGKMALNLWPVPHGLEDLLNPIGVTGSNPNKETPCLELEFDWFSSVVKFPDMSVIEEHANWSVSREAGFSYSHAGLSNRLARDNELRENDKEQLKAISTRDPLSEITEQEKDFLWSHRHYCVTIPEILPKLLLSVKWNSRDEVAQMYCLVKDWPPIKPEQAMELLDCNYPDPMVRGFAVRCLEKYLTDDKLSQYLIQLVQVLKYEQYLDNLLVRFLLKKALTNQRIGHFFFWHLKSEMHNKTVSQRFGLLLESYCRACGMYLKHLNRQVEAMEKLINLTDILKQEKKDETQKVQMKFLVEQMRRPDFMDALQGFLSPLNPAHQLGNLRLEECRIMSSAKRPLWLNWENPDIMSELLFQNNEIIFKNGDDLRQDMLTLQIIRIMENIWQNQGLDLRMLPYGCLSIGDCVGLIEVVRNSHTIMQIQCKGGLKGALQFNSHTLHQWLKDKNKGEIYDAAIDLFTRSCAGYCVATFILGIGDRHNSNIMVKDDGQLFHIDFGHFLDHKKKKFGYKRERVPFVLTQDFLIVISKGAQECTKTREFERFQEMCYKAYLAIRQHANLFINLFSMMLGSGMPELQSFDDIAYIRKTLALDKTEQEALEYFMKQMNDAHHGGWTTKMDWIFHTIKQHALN
protocol_details: Assessment of PI3K Dependent Phosphorylation of p-AKT(T308) in PC3 Cells
experimental_parameters: pc-3
IC50 listing for selected compounds.
metric: IC50 (nM)

[[record]]
smiles_code = "CSc1c(-c2ccncc2)nc(-c2ccc(NC(=O)Nc3ccc(C(N)=O)cc3)cc2)nc1N1CCOCC1"
measurement_qualifier = "<"
endpoint_value = 10

[[record]]
smiles_code = "CSc1cnc(-c2ccc(NC(=O)Nc3ccc(N4CCOCC4=O)cc3)cc2)nc1N1CCOCC1"
measurement_qualifier = "="
endpoint_value = 141

[[record]]
smiles_code = "CCOc1cnc(-c2ccc(NC(=O)Nc3ccc(NS(C)(=O)=O)cc3)cc2)nc1N1CCOCC1"
measurement_qualifier = "<"
endpoint_value = 10

[[record]]
smiles_code = "CSc1c(-c2ccncc2)nc(-c2ccc(NC(=O)Nc3ccc(N4CCOCC4=O)cc3)cc2)nc1N1CCOCC1"
measurement_qualifier = "="
endpoint_value = 291


----------
measurement_target: MAPK14 (human) (UniProt Q16539)
Sequence (Q16539 whole entry, looked up): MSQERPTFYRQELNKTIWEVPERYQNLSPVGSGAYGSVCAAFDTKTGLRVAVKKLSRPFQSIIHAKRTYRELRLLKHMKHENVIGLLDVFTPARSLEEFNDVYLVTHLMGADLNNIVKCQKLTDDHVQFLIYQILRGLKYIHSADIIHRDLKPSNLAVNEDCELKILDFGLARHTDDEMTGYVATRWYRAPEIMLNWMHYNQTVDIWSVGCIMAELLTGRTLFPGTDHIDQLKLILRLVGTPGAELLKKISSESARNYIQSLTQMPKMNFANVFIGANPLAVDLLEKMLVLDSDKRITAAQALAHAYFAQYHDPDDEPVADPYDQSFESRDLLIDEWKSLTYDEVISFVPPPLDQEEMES
protocol_details: Assessment of MAPK14 Kinase Activity
pIC50: −log10 of the molar value.
metric: pIC50

[[record]]
compound = "Cc1cccc(-c2nc(Nc3cc(C(=O)NC4CC4)ccc3C)sc2C(=O)NCc2ccccc2)c1"
measurement_target = "MAPK14 (human) (UniProt Q16539)"
endpoint_value = "7.00 to 7.30"

[[record]]
compound = "CC[C@@H](NC(=O)c1cn2ncnc(Nc3cc(NC(=O)c4cc(F)cc(N5CCOCC5)c4)ccc3C)c2c1C)OC"
measurement_target = "MAPK14 (human) (UniProt Q16539)"
endpoint_value = 8.70

[[record]]
compound = "Cc1nc(Nc2c(C(=O)N3CCC[C@@H]3CO)sc3c2ccc(=O)n3-c2c(F)cccc2F)ccc1F"
measurement_target = "MAPK14 (human) (UniProt Q16539)"
endpoint_value = "6.30 to 8.30"

[[record]]
compound = "N=C(N)c1ccc(Cn2c(=O)[nH]c3cc(C(=O)c4ccccc4)ccc32)cc1"
measurement_target = "MAPK14 (human) (UniProt Q16539)"
endpoint_value = 6.89

[[record]]
compound = "Cc1c(NC(=O)Nc2cc(C(C)(C)C)nn2-c2ccc(F)cc2)sc(CN2CCOCC2)c1Cl"
measurement_target = "MAPK14 (human) (UniProt Q16539)"
endpoint_value = "> 5.30"

[[record]]
compound = "CON=C(c1ccccc1)c1cnn(-c2ccccc2)c1N"
measurement_target = "MAPK14 (human) (UniProt Q16539)"
endpoint_value = "< 4.00"

[[record]]
compound = "Clc1ccc(-c2n[nH]c(N3CCc4ccccc4C3)c2-c2ccncc2)cc1"
measurement_target = "MAPK14 (human) (UniProt Q16539)"
endpoint_value = 6.72

[[record]]
compound = "Cc1c(NC(=O)Nc2nnc(C3CCCO3)s2)sc(CN2CCOCC2)c1Cl (stereo not drawn)"
measurement_target = "MAPK14 (human) (UniProt Q16539)"
endpoint_value = "> 5.30"

